TARGET_OF_ASSAY: UniProt Q99720
ASSAY_OVERVIEW: biochemical
Type: binding
Where a name gives a salt, the structure may show the parent alone.
VALUE_KIND: Ki

compound="CC1OC2(CCN(CCc3cccc(NS(C)(=O)=O)c3)CC2)CN(c2ccccc2)C1=O (stereo not shown)" result="< 500 nM"
compound="COCC1CN(c2ccccc2)CC2(CCN(CCc3ccccc3)CC2)O1 (stereo not shown) [Example 319, hydrochloride]" result="< 500 nM"
compound="CC1OC2(CCN(CCc3cccc(N)n3)CC2)CN(c2ccccc2)C1=O (stereo not shown)" result="< 500 nM"
compound="CC1OC2(CCN(CCc3ccc(N)cc3)CC2)CN(c2ccccc2)C1=O (stereo not shown)" result="< 500 nM"
compound="C[C@H]1OC2(CCN(C[C@@H](O)c3ccccc3)CC2)CN(c2ccccc2)C1=O [Example 151b]" result="< 500 nM"
compound="COc1ccccc1CCN1CCC2(CC1)CN(c1ccccc1F)C(=O)C(C(C)C)O2 (stereo not shown) [Example 137, hydrochloride]" result="< 100 nM"
compound="Cc1ncsc1CCN1CCC2(CC1)CN(c1ccccc1)C(=O)C(C)O2 (stereo not shown) [Example 61, hydrochloride]" result="< 500 nM"
compound="CNC(=O)c1cccc(CCN2CCC3(CC2)CN(c2ccccc2F)C(=O)C(C)O3)c1 (stereo not shown)" result="< 500 nM"
compound="CC1OC2(CCN(CC(O)c3ccccc3)CC2)CN(c2ccccc2)C1=O (mixture of isomers)" result="> 500 nM"
compound="CC(C)C1OC2(CCN(CCc3ccccc3)CC2)CN(c2ccccc2F)C1=O (stereo not shown) [Example 312, hydrochloride]" result="< 100 nM"
compound="CC1OC2(CCN(CCc3ccccc3NS(C)(=O)=O)CC2)CN(c2ccccc2)C1=O (stereo not shown)" result="< 500 nM"
compound="CC1OC2(CCN(CCc3ncccc3Cl)CC2)CN(c2ccccc2)C1=O (stereo not shown) [Example 37, hydrochloride]" result="< 500 nM"
compound="C[C@@H]1OC2(CCN(C[C@H](O)c3ccccc3)CC2)CN(c2ccccc2)C1=O [Example 151d]" result="< 500 nM"
compound="CC1OC2(CCN(CCc3cccc(NC(N)=O)c3)CC2)CN(c2ccccc2)C1=O (stereo not shown)" result="< 500 nM"
compound="O=C1C(CCCO)OC2(CCN(CCc3ccccc3)CC2)CN1c1ccccc1F (stereo not shown)" result="< 500 nM"
compound="C[C@@H]1OC2(CCN(C[C@@H](O)c3ccccc3)CC2)CN(c2ccccc2)C1=O [Example 151c]" result="< 500 nM"

###

TARGET_OF_ASSAY: human σ1 receptor (Homo sapiens)
Sequence (Q99720 whole entry): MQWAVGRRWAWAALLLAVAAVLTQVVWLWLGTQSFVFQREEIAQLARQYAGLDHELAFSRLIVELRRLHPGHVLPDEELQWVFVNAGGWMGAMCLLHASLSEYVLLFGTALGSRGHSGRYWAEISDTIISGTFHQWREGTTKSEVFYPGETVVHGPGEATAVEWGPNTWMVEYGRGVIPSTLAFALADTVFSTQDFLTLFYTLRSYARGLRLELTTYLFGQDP
ASSAY_OVERVIEW: biochemical
Format: binding
REPORTED_CONDITIONS: read-out: μ and σ1 dual binding
pKi: −log10 of the molar value. Structures can show the parent of a compound that is named as a salt.
A collection of molecules and their measured pKi
VALUE_KIND: pKi

molecule="CC1OC2(CCN(CCc3ncccc3Cl)CC2)CN(Cc2ccc(F)cn2)C1=O (stereo not shown) [Example 46, hydrochloride]" result="> 6.30"
molecule="C[C@H]1OC2(CCN(CCc3ccccc3)CC2)CN(c2ccccc2)C1=O [Example 10a]" result="> 7.00"
molecule="CC1OC2(CCN(CCc3ccccc3)CC2)CN(c2cccc(N)c2)C1=O (stereo not shown)" result="< 6.30"
molecule="CC1OC2(CCN(CC(=O)N3CCCCC3)CC2)CN(Cc2ccc(C(F)(F)F)cn2)C1=O (stereo not shown) [Example 128, hydrochloride]" result="< 6.30"
